# Tested on: MOLT-4
# EXPERIMENT_SUMMARY: NCI tumour cell line growth inhibition, 48 h
Activity calls are given as the source filed them. Rule as the data show it: active = GI50 up to about 1.1 µM and inactive = higher.
REPORTED_PROPERTY: GI50

{"COMPOUND": "Nc1nccc(NCC2(CO)CC(OCc3ccccc3)C2)n1 (stereo not given)", "GI50": "> 100 µM (inactive)"}
{"COMPOUND": "COc1cc(O)c2c(O)c3c(=O)oc(C)cc3c(OC)c2c1 [PAEPALANTINE]", "GI50": "23 µM (inactive)"}
{"COMPOUND": "COc1ccc2c3c([nH]c2c1)[C@H](C=C(C)C)N1C(=O)[C@@H]2CCCN2C(=O)[C@@H]1C3 [FUMITREMORGIN]", "GI50": "> 100 µM (inactive)"}
{"COMPOUND": "CCOc1ccc(NCC2CC/C(=C\\c3ccc(Cl)cc3)C2=O)cc1 (stereo not given)", "GI50": "16.8 µM (inactive)"}

The measured GI50 associated with N#CC(C(=O)c1cccnc1Cl)c1nc2cc(C(F)(F)F)ccc2s1 (stereo not given) reads > 100 µM (inactive)

FYI, the data here is from ChEMBL document CHEMBL1201862.
